Taken from ChEMBL document CHEMBL1156486.

Target: Macrophage metalloelastase (Homo sapiens)
Sequence (P39900 whole entry): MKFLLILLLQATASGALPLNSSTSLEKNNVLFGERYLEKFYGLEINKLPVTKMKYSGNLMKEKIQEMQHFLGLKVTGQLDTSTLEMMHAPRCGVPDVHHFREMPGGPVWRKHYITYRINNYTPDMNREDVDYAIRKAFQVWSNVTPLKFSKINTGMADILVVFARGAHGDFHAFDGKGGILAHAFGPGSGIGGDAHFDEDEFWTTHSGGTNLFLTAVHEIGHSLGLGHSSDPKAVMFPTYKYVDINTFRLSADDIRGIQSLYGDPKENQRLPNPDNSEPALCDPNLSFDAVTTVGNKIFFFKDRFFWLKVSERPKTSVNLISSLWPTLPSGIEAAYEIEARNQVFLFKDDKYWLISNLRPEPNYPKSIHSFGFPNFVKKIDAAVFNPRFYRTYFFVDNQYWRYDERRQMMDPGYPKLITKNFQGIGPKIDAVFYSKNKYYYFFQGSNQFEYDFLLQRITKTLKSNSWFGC
Measured metric: pIC50
pIC50 field: float, defined as -log10 of concentration (mol/L).

[ask] Indicate its recorded pIC50; the compound in question is CNC(=O)[C@H](Cc1c[nH]c2ccccc12)NC(=O)[C@@H](CC(=O)NO)CC(C)C [ILOMASTAT]
[reply] 8.29
